Tested on: P. falciparum chloroquine-sensitive D6-strain
assay.details: In vitro drug susceptibility assay ([3H]-hypoxanthine incorporation), D6 strain
Assay type: cell-based
condition: Plasmodium falciparum; Table 1, D6 strain; read-out: IC50 against P. falciparum D6 strain
measured.metric: log10 IC50 (log10 of the value in mg/L)
Answers are given as log10 of IC50 in mg/L.

compound: O=C(C[C@H]1NCCCC1O)Cn1cnc2cccc(Cl)c2c1=O (some centres unmarked)
log10 IC50: -2.91
--
compound: C=CCOC(=O)N1CCCC(OCC)[C@H]1CC(=O)Cn1cnc2ccccc2c1=O (some centres unmarked)
log10 IC50: -0.69
--
compound: O=C(C[C@H]1NCCCC1O)Cn1cnc2c(Cl)c(Cl)c(Cl)cc2c1=O (some centres unmarked)
log10 IC50: -3.02
--
compound: COC1CCCN[C@@H]1CC(=O)Cn1cnc2ccc3c(c2c1=O)OCO3 (some centres unmarked)
log10 IC50: -1.98
--
compound: COC1CCCN[C@@H]1CC(=O)Cn1cnc2cc3c(cc2c1=O)OCO3 (some centres unmarked)
log10 IC50: -1.74

Provide value of log10 IC50 for this record tested with P. falciparum chloroquine-sensitive D6-strain: C=CCOC(=O)N1CCCC(OC)[C@H]1CC(=O)Cn1cnc2cc3c(cc2c1=O)OCO3 (some centres unmarked) -1.05

Do the same for `O=C(C[C@@H]1CCCCN1)Cn1cnc2ccccc2c1=O` please -1.77

Do the same for CCOC1CCCN[C@@H]1CC(=O)Cn1cnc2cc(Br)c(Cl)cc2c1=O (some centres unmarked) please -1.95
